From: ChEMBL document CHEMBL1201862

System: HCT-116
Assay Remarks: NCI tumour cell line growth inhibition, 48 h
The source made the active and inactive calls. Cut-off read from the data, not from the text of the source: active = GI50 up to about 1.1 µM and inactive = higher.
Assay Readout: GI50

As a guide, the following entries are already answered.
[
  {
    "Compound": "COc1cc2c(c(OC)c1)C(=O)O[C@H](C)CCCC/C=C/C2",
    "GI50": "8.61 µM (inactive)"
  },
  {
    "Compound": "CC(Cl)(CCC(Cl)C(C)(C)Cl)C(=O)CBr (stereo unspecified)",
    "GI50": "7.05 µM (inactive)"
  },
  {
    "Compound": "CN(C)C(=O)c1ccc([N+](=O)[O-])cc1",
    "GI50": "> 100 µM (inactive)"
  },
  {
    "Compound": "CCOC(=O)c1nc2ccc(C(F)(F)F)cc2nc1NCc1ccc(OC)c(OC)c1",
    "GI50": "39.2 µM (inactive)"
  },
  {
    "Compound": "COc1c2ccoc2nc2c(OC)c(OCC(O)C(C)(C)O)ccc12 (stereo unspecified)",
    "GI50": "> 100 µM (inactive)"
  }
]

Read the next record carefully.
Data request: Recorded GI50 for `NCCCNCc1c2ccccc2c(CNCCCN)c2ccccc12` , please?
Data returned: 5.35 µM (inactive)
